System: LOX IMVI melanoma
Experiment Description: NCI tumour cell line growth inhibition, 48 h
Overview of reported TGI across a group of compounds:
Quantity Measured: TGI

Compound | Observed Measurement
CCOC(=O)Nc1ccc2c(c1)/C(=N\NC(N)=S)c1ccccc1-2 | 20.2 µM
CCOc1cccc(/C=N/N=C2\C(=O)Nc3c(Cl)cc(Cl)cc32)c1O | > 100 µM
Cn1c(=O)c2c(nc3n(CCCCl)c(=O)ccn23)n(C)c1=O | > 100 µM
O=c1c2ccccc2nc(-c2cc3c(cc2Cl)Sc2nccn2S3(=O)=O)n1-c1ccccc1 | > 100 µM
COc1cc(C2=C(c3cc(OC)c4ccccc4c3OC)C(=O)c3ccccc3C2=O)c(OC)c2ccccc12 | > 100 µM
CC(=O)OCC1=C(C(=O)O)N2C(=O)C(NC(=O)CSc3ccncc3)C2SC1 (stereo unspecified) | > 100 µM
C/C=C(\C)C(=O)NC1=CC[C@@]2(C)C(=CCC3C2CC[C@@]2(C)C3CC[C@@H]2C(C)N(C)C)C1=O (stereo partly specified) | 3.58 µM
CN1CN(c2ccccc2)C2(CCN(Cc3csc4ccccc34)CC2)C1=O | 25.2 µM
Cc1c2ccncc2c(C)c2c1[nH]c1ccc(OC(C)C)cc12 | 2.51 µM
Cc1ccc2nc3c(=O)[nH]c(=O)nc-3n(C)c2c1C | > 100 µM
O=C(Nc1ccc([As](=O)(O)O)cc1)Nc1cccc(Cl)c1Cl | > 100 µM
C=CCOc1cc(NC(=S)c2ccoc2C)ccc1OC | > 100 µM
Cc1nnn[n-]1.N.N.N.N.N.[Cl-].[Co+3] | > 100 µM
OCCOCCN1CCN(CCCN2c3ccccc3Sc3ccc(C(F)(F)F)cc32)CC1 | 15.1 µM
CC(C)(C)[Si](C)(C)OCC1OC(n2cnc3c(N)ncnc32)CC1O (stereo unspecified) | > 100 µM
CCOC(=O)N1CCN(/[N+]([O-])=N/Oc2ccc([N+](=O)[O-])cc2[N+](=O)[O-])CC1 | > 100 µM

* * *

Test system: SK-MEL-2 melanoma
Experiment Description: NCI tumour cell line growth inhibition, 48 h; in the data active = GI50 below about 0.43 µM; inactive = the rest
Labels: class 1 (active), class 0 (inactive)

Compound | Class
COc1cc(/C=C\c2cc(OC)c(OC)c(OC)c2)cc(NC(=O)/C=C/c2cc(OC)c(OC)c(OC)c2)c1OC | class 0
COc1ccc(/C=C/C(=O)c2cc(OC)c(OC)c(OC)c2)cc1OCc1cn(Cc2ccc(F)cc2)nn1 | class 0
N=C1C(c2nc3ccccc3s2)=C(O)CN1c1ccc(F)c(Cl)c1 | class 0
CCCCCCCCNc1cc2c3c(c1)CCCN3CCC2 | class 0
N.N.N.N.[Co+3].[N-]=[N+]=[N-].[N-]=[N+]=[N-].[N-]=[N+]=[N-] | class 0
O=c1[nH]c(=O)c2cn[nH]c2[nH]1 | class 0
CC[C@@H]1c2c(C#N)ncn2-c2cnc(Nc3ccc(C(=O)NC4CCN(C5CCN(CC6CC6)CC5)CC4)cc3OC)nc2N1C1CCCC1 | class 1
C/C=C(\C)C(=O)NC1=CC[C@@]2(C)C(=CCC3C2CC[C@@]2(C)C3CC[C@@H]2C(C)N(C)C)C1=O (some centres undefined) | class 0
O=C(Oc1cccc(F)c1OC(=O)c1cccc(O)c1)c1cccc(O)c1 | class 0
